readout type: melting point

Worked cases, answers included:
compound: Cn1cc(C(=O)Nc2ccccc2-c2cccc(Cl)c2)c(CF)n1 [No. I.11]
result value: 96 to 99 °C

compound: Cc1nn(C)c(F)c1C(=O)Nc1ccccc1-c1cccc(C#N)c1 [No. I.15]
result value: 137 to 138 °C

Q. Request the reported melting point associated with Cn1cc(C(=O)Nc2ccccc2-c2cccc(C#N)c2)c(C(F)(F)F)n1 [No. I.5]
A. 76 to 78 °C
